target: Arabidopsis thaliana SHMT; assay: SHMT activity assay (ED50 SHMT), coupled with N5,N10-CH2-THF dehydrogenase, NADH at 340 nm; format: biochemical; details: Table 2, Arabidopsis thaliana SHMT enzyme assay; values given as upper bounds
pEC50: −log10 of the molar value.
MEASURED QUANTITY: pEC50

- CCOc1n[nH]c2c1C(c1cc(Br)cc(C#N)c1)(C1(F)CC1)C(C#N)=C(N)O2 (centres unmarked): > 6.00
- COc1ccc(C2(C3(F)CC3)C(C#N)=C(N)Oc3[nH]nc(C)c32)cc1Cl (centres unmarked): > 8.00
- N#CC1=C(N)Oc2[nH]ncc2C1(c1cc(Br)cc(C(F)(F)F)c1)C1CCC1 (centres unmarked): > 8.00
- CCOc1n[nH]c2c1C(c1cc(Cl)cc(Cl)c1)(C1CCC1)C(C#N)=C(N)O2 (centres unmarked): > 7.00
- Cc1n[nH]c2c1C(c1cc(C#N)cc(C#N)c1)(C1CC1)C(C#N)=C(N)O2 (centres unmarked): > 8.00
- Cc1n[nH]c2c1C(c1cc(Cl)cc(Oc3ccc(Cl)cc3)c1)(C1CC1)C(C#N)=C(N)O2 (racemic): > 8.00
- Cc1n[nH]c2c1C(c1cc(C#N)cc(-c3cccc(Cl)c3)c1)(C1CCC1)C(C#N)=C(N)O2 (centres unmarked): > 8.00
- COc1c(Cl)cc(C2(C(C)C)C(C#N)=C(N)Oc3[nH]ncc32)cc1Cl (centres unmarked): > 8.00

The reported measurements were obtained from patent US9480259B2.
